- TARGET DESC: T1, UNK ZnF1-3 (human, UniProt Q9C0B0 31-174)
- T1 sequence: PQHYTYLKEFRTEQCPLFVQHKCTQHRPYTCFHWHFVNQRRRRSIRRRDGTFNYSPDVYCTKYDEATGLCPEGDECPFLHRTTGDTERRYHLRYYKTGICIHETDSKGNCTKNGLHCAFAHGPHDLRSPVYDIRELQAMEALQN
- TEST METHOD NOTES: nsRBNS (natural sequence RNA bind-n-seq); RBNS binding buffer (assumed for nsRBNS): 25 mM Tris pH 7.5, 150 mM KCl, 3 mM MgCl2, 0.01% Triton X-100, 500 ug/ml BSA, 20 U/ml SUPERase-In, 4 C; UNK is unkempt and MSI1 is Musashi-1; names of the RNAs are library labels; protein concentration not given here; high values mean tight binding
Over roughly 24,000 sequences, “enrichment r” has its median near 0.99; the highest 2% begin near 3.7. Many of the other results were omitted from the sample, so the highest values are more common in it than they were.
ENDPOINT NAME: binding signal (enrichment R)
Express the result in enrichment R but write the number alone.

I'd like to know its binding signal. The binder in question is chr5:141234466:141234467:-_ENSMUSG00000000149_ENSMUST00000000153|mus_hu|FALSE|FALSE (ssRNA) RNA: GGGAGUUCUACAGUCCGACGAUCUAAUAAAAAAGACAAUAAGGAUUAACAGUGAAAUUAAAAUUAAAAAAUACAAAAGCCUAAGGUUCUGGAGACAAAACUGACUAGAGUCUAUGUGUAGCCAAGUUGUGAAUGACAGUUUAGCAACAGAGGAUUGAGCAUCA
9.17

I am curious: what binding signal value has been reported for chr16:45382771:45382772:-_ENSMUSG00000022661_ENSMUST00000163230|mus_mus|mus_mus_mus_hu_True|38_68 (ssRNA) RNA: GGGAGUUCUACAGUCCGACGAUCCUGGGUCAUGUUAUAAGACAAAUGGACAGGGAGGGCAUGCUUCUGUAAAGAUGUGAGCUAUUGUCUAAGACUAACAAUAUUGCUCUAGCUAUAAAAAUAAGUUAAAUGAAUAAGUUAAGACAACAGAGGAUUGAGCAUCA ?
9.94

So what's the measured binding signal for this one? chr5:141234466:141234467:-_ENSMUSG00000000149_ENSMUST00000000153|mus_hu|motif|central (ssRNA) RNA: GGGAGUUCUACAGUCCGACGAUCUAAUAAAAAAGACAAUAAGGAUUAACAGUGAAAUUAAAAUUAAAAAAUACAAAAGCCGGAGGUUCUGGAGACAAAACUGACUAGAGUCUAUGUGUAGCCAAGUUGUGAAUGACAGUUUAGCAACAGAGGAUUGAGCAUCA
13.3

For the binder chr16:45382771:45382772:-_ENSMUSG00000022661_ENSMUST00000163230|mus_mus|mus_mus_mus_hu_True|18_68 (ssRNA) RNA: GGGAGUUCUACAGUCCGACGAUCCUGGGUCAUGUUAUAAGACAAAUGGACAGGGAGGGCAUGCUUCUGUAAAGAUGUGAGCUAUUGUCUAAGACUAACAAUAUUUAUCUAGCUAUAUAAAAAUAAGAAAUGAAUAAGUUAAGACAACAGAGGAUUGAGCAUCA , what binding signal is on record?
5.64

Which binding signal value belongs to chr8:35894604:35894605:-_ENSMUSG00000031529_ENSMUST00000033929|mus_hu|FALSE|FALSE (ssRNA) RNA: GGGAGUUCUACAGUCCGACGAUCCUAUAGCAAUGCUUUAUAGAAGACAAACAGCUUAUUUCUAGGCUGUCAGGGACUUCUAGAAUAUUGAUGUUGUUAUUAGAAACAAUCCUCUGUAAUCCAGUCCCAGGUUGAAAUCUGAUCCAACAGAGGAUUGAGCAUCA ?
0.4

Query: binding signal; subject: chr8:13147844:13147845:+_ENSMUSG00000031446_ENSMUST00000016680|mus_hu|FALSE|FALSE (ssRNA) RNA: GGGAGUUCUACAGUCCGACGAUCUACAAUAUUAACAAUCUCUAGACACAACGAACUUAUAAGAAAAAAAAAAUAGAAAUCUGUUUGGUCUUUCUUAGACCACAUAUCAUGGAACUCAUAAAUGAAAAUUUUCAAAGAUAGAAACAACAGAGGAUUGAGCAUCA
3.59

Fill in the blank: the reported binding signal of chr12:8504966:8504967:-_ENSMUSG00000054364_ENSMUST00000067384|mus_hu|FALSE|FALSE (ssRNA) RNA: GGGAGUUCUACAGUCCGACGAUCACAAGUGUGGUCAGAAUGCUACUGUCGUAUGCAAAUGACGAGUGCAUUAAGUGUCAAACAAUGAAACAAUUGUGCAAAGAAUAAAAAAACAAAUUUUAGCCUUUAAAUAAAUCAAAUAACCAACAGAGGAUUGAGCAUCA is ____.
2.25
